Assay: NCI Yeast Anticancer Drug Screen. Data for the rad50 strain (AID 155)
Settings: S. cerevisiae rad50 strain growth inhibition; at 50.0 µM
Compounds without any hit were thinned out: in the full panel of roughly 79,000, 15% have a hit. Calls of active or inactive are those of the source. Cut-off read from the data, not from the text of the source: active = growth inhibition above about 70%; inactive = the rest.
API: response.call in active, inactive

Known results for compounds:
# compound, group
records = [
    ("Nc1cc(CO)cc(Nc2c3ccccc3nc3ccccc23)c1", "inactive"),
    ("Cc1csc2c1-n1cccc1C2=O", "inactive"),
    ("Cc1ccc(S(=O)(=O)Nc2ccccc2-c2nc3ccc([N+](=O)[O-])cc3c(=O)o2)cc1", "inactive"),
    ("NC(=O)[C@H]1CC2CCC1C2 (some centres undefined)", "inactive"),
]

Q) Just curious, what result did `CCN(CC)CCC1CCNCC1` get here?
A) inactive

Q) Just curious, what result did `COc1ccc(C2=NN(C(C)=O)c3nc4ccccc4nc3O2)cc1` get here?
A) inactive

Q) Just curious, what result did `CC(C)(C)/C(=N\[N+](C)(C)C)c1ccccc1` get here?
A) inactive

Q) Just curious, what result did N#CC(C(=N/NC(N)=S)/C(=N\NC(N)=S)C(C#N)c1ccccc1)c1ccccc1 (centres undefined) get here?
A) inactive

Q) Just curious, what result did `Cc1ccccc1NC(=O)Oc1ccc2c(C)cc(=O)oc2c1` get here?
A) inactive

Q) Just curious, what result did COc1cc(OC)c2c(c1)OC(c1ccccc1)CC2=O (centres undefined) get here?
A) inactive

Q) Just curious, what result did `O=C1c2ccccc2C(=O)N1CCc1ncc[nH]1` get here?
A) inactive

Q) Just curious, what result did O=C1c2ccccc2OC(Cl)(c2ccccc2)C1Cl (centres undefined) get here?
A) inactive

Q) Just curious, what result did `N#Cc1c(N2CCCC2)ncn(Cc2ccccc2)c1=O` get here?
A) inactive

Q) Just curious, what result did `COc1ccc(/C=c2/s/c(=C(\C#N)c3nc4ccccc4[nH]3)n(-c3ccccc3)c2=O)cc1` get here?
A) inactive

Q) Just curious, what result did `O=C(c1ccccc1O)N1CCCCC1` get here?
A) inactive

Q) Just curious, what result did CC(NC(=O)NCCCl)c1cccc2ccccc12 (centres undefined) get here?
A) inactive

Q) Just curious, what result did `O=C1Cc2ccccc2CCc2ccccc21` get here?
A) inactive
